assay: Cellular viability qHTS for adrenocortical cancer (ACC) cell line NCI-H295R (AID 1963990); settings: CellTiter-Glo ATP luminescence, 48 h; series mostly up to 46.1 µM; further: nearly all actives have a fitted effect of over 60% in size
Inconclusive results are not listed. Calls of active or inactive are those of the source. The call rests on the fitted dose curve; in most records, active means well fitted cell-killing curve with a large enough effect; inconclusive means small, poorly fitted or top-dose-only effect; inactive means flat fitted curve, though single readings scatter.
Could you please pick one outcome from this set? active, inactive

| Molecule | Answer Label |
| --- | --- |
| O=C(NOCCO)c1ccc2cncn2c1Nc1ccc(I)cc1F | inactive |
| Cc1ccc(-c2ccc3c(ccc4sc5c(c43)NC[C@@H](C)NC5=O)n2)cn1 | active |

# input Please share the test call associated with `COc1cc(/C=C/C(N)=O)cc(OC)c1OC` .
# output inactive

###

experiment: Viability qHTS for spleen associated tyrosine kinase inhibitor (SYKi) naive MV4-11 cells (AID 1963823); conditions: MV4-11 AML viability, CellTiter-Glo luminescence, 72 h; series mostly up to 45 µM; further: nearly all actives have a fitted effect of over 40% in size; further: potency means the concentration at half of the fitted maximal effect
Results filed as inconclusive are left out. Calls of active or inactive are those of the source. The call rests on the fitted dose curve; in most records, active means well fitted cell-killing curve with a large enough effect; inconclusive means small, poorly fitted or top-dose-only effect, or effect the other way; inactive means no such curve, though single readings can be large or run the other way.
Quantity Measured: Potency

| Compound | Potency |
| --- | --- |
| CC(=O)N[C@H]1[C@H](O[C@H]2CC[C@@]3(C)C(CC[C@]4(C)C3CC=C3C5CC(C)(C)CC[C@]5(C(=O)O)C(O)C[C@]34C)C2(C)C)O[C@H](CO[C@@H]2O[C@H](C)[C@H](O)[C@H](O)[C@H]2O[C@@H]2OC[C@@H](O)[C@H](O)[C@H]2O)[C@@H](O)[C@@H]1O (some centres not stated) | 3480 nM (active) |
| Cn1c(=O)c2c(ncn2CC(O)CO)n(C)c1=O (configuration not stated) | inactive |
| OC[C@H]1O[C@@H](OCc2ccccc2)[C@H](O)[C@@H](O)[C@@H]1O | inactive |
| C[C@]1(OC(=O)/C=C/c2ccccc2)C[C@@H](O)[C@]2(O)C=CO[C@@H](O[C@@H]3O[C@H](CO)[C@@H](O)[C@H](O)[C@H]3O)[C@@H]21 | inactive |
| CC(O)(C(=O)O)C1CCC2(C)C1CCC1(C)C2CCC2C3(C)CCC(O)C(C)(COC4OC(CO)C(O)C(O)C4O)C3CCC21C (configuration not stated) | inactive |

# input # Potency lookup, item `C(#Cc1nc2ncccc2nc1OCCN1CCCC1)c1ccccc1`
# output 651 nM (active)

# input # Potency lookup, item C[N+]1(C)[C@@H]2CC(OC(=O)[C@H](CO)c3ccccc3)C[C@H]1[C@@H]1O[C@@H]12 (some centres not stated)
# output inactive

###

experiment: Cellular viability qHTS for adrenocortical cancer (ACC) cell line NCI-H295R (AID 1963990); settings: CellTiter-Glo ATP luminescence, 48 h; series mostly up to 46.1 µM; further: nearly all actives have a fitted effect of over 60% in size
Results filed as inconclusive are left out. Calls of active or inactive are those of the source. Calls follow the shape of the dose curve; as a rule, active = well fitted cell-killing curve with a large enough effect; inconclusive = small, poorly fitted or top-dose-only effect; inactive = flat fitted curve, though single readings scatter.
Could you please pick one outcome from this set? T for active, F for inactive

| Compound | Answer Label |
| --- | --- |
| CCN1CCN(c2ccc(Nc3cc(N(C)C(=O)Nc4c(Cl)c(OC)cc(OC)c4Cl)ncn3)cc2)CC1 | F |
| CN(C)c1ccc(C(=O)NCCCCCCC(=O)NO)cc1 | T |
| CN(C)CC[C@H](CSc1ccccc1)Nc1ccc(S(=O)(=O)NC(=O)c2ccc(N3CCN(Cc4ccccc4-c4ccc(Cl)cc4)CC3)cc2)cc1[N+](=O)[O-] | T |

# input Please share the test call associated with `C=CC[C@@H]1/C=C(\C)C[C@H](C)C[C@H](OC)[C@H]2O[C@@](O)(C(=O)C(=O)N3CCCC[C@H]3C(=O)O[C@H](/C(C)=C/[C@@H]3CC[C@@H](O)[C@H](OC)C3)[C@H](C)[C@@H](O)CC1=O)[C@H](C)C[C@@H]2OC` .
# output F

# input Please share the test call associated with `Nc1[nH]c(=O)ncc1F` .
# output F

# input Please share the test call associated with `COc1cc2nc(N3CCCN(C)CC3)nc(NC3CCN(Cc4ccccc4)CC3)c2cc1OC` .
# output T

# input Please share the test call associated with COC1CCC(N(C(=O)C2CCC(C)CC2)c2cc(C3=CCCCC3)sc2C(=O)O)CC1 (centres undefined) .
# output F

# input Please share the test call associated with CCCCC(CC)COC(=O)c1ccc(N(C)C)cc1 (centres undefined) .
# output F

# input Please share the test call associated with `CC[C@@]1(O)C(=O)OCc2c1cc1n(c2=O)Cc2c-1nc1cc(F)c(C)c3c1c2[C@@H](N)CC3` .
# output T

# input Please share the test call associated with CCOC(=O)C1=C(C)NC(=S)NC1c1cccc(O)c1 (centres undefined) .
# output F

# input Please share the test call associated with CCN1CCCC1CN (centres undefined) .
# output F

# input Please share the test call associated with `C[C@@H]1CN(c2c(F)c(F)c3c(=O)c(C(=O)O)cn(C4CC4)c3c2F)C[C@H](C)N1` .
# output F

# input Please share the test call associated with `O=c1[nH]c(-c2ccc(C(F)(F)F)cc2)nc2c1CSCC2` .
# output F

# input Please share the test call associated with `C1COC(NC(C2CC2)C2CC2)=N1` .
# output F

# input Please share the test call associated with `CC[C@]12CCCN3CCc4c(n(c5ccccc45)[C@@](O)(C(=O)OC)C1)[C@@H]32` .
# output F

# input Please share the test call associated with `CO/N=C(\C(=O)N[C@@H]1C(=O)N2C(C(=O)O)=C(CSc3nc(=O)c(O)nn3C)CS[C@H]12)c1csc(N)n1` .
# output F

# input Please share the test call associated with `C[C@@H]1CCN(C(=O)N2CCCC2)C[C@@H]1N(C)c1ncnc2[nH]ccc12` .
# output F

# input Please share the test call associated with `Cc1nc2n(c(=O)c1CCN1CCC(c3noc4cc(F)ccc34)CC1)CCCC2` .
# output F

# input Please share the test call associated with CCCCCN(CCCCC)C(=O)C(CCC(=O)O)NC(=O)c1ccc(Cl)c(Cl)c1 (centres undefined) .
# output F

###

Test: Quantitative highthroughput screen to assess conditional lethalithy of SEM cells grown in RPMI1640 with unreated serum (RPMI+s) (AID 1963883); further: nearly all actives have a fitted effect of over 35% in size;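 on viability: 100% = DMSO wells and 0% = empty wells without cells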
Conditions: SEM B-ALL cells, CellTiter-Glo viability, 48 h; series mostly up to 45.8 µM
Method: Assay Provider: Jason Cantor Ph.D. Department of Biochemistry University of Wisconsin-Madison, Madison, WI, USA Chemical screening studies have identified drug sensitivities across hundreds of cancer cell lines but most putative therapeutics fail to translate. […] Sets of conditional anticancer compounds spanned phases of clinical development and included non-oncology drugs were assessed. […] 6; Detection; Luminescence, Viewlux PerkinElmer. […]
Inconclusive results are not listed. Activity calls are given as the source filed them. Calls come from the whole dose curve; as a rule, active = well fitted cell-killing curve with a large enough effect; inconclusive = small, poorly fitted or top-dose-only effect, or effect the other way; inactive = no such curve, though single readings can be large or run the other way.
Could you please pick one outcome from this set? yes = active, no = inactive

// known answers, use as guide
| Compound | Answer Label |
| --- | --- |
| CC(C=CC1=C(C)CCCC1(C)C)=CC=CC(C)=CC(=O)Nc1ccc(O)cc1 | yes |
| CCS(=O)(=O)c1cccc(-c2cc(C(=O)NC3CCN(C)CC3)c(C)c3[nH]c4ncc(C)cc4c23)c1 | yes |

# input Please share the test call associated with `Cc1ccc(C(=O)Nc2ccc(Oc3cc4cnn(C)c4cc3-c3cn[nH]c3)c(F)c2)c(=O)n1-c1ccc(F)cc1` .
# output yes

# input Please share the test call associated with NC1CCC(N[C@@H]2C[C@H]2c2ccccc2)CC1 (some centres not stated) .
# output no

# input Please share the test call associated with CC1(C)CC(=O)c2c(C(F)(F)F)nn(-c3ccc(C(N)=O)c(NC4CCC(O)CC4)c3)c2C1 (configuration not stated) .
# output yes

# input Please share the test call associated with `CCCCc1ccc(NS(=O)(=O)c2ccc(C)c(C(=O)N3CCN(c4cccc(C)c4C)CC3)c2)cc1` .
# output no

# input Please share the test call associated with `COc1cc2ncn(-c3cc(OCc4ccccc4S(C)(=O)=O)c(C#N)s3)c2cc1OC` .
# output no

###

assay: Quantitative highthroughput screen to assess conditional lethalithy of P12 Ichikawa cells grown in Human Plasma-Like Medium with dialyzed fetal bovine serum (HPLM+ds) (AID 1963879); conditions: ATP luminescence, 48 h; viability; series mostly up to 45.8 µM; further: nearly all actives have a fitted effect of over 35% in size
Inconclusive results are not listed. Calls of active or inactive are those of the source. The call rests on the fitted dose curve; in most records, active means well fitted cell-killing curve with a large enough effect; inconclusive means small, poorly fitted or top-dose-only effect; inactive means flat fitted curve, though single readings scatter.
Could you please pick one outcome from this set? class 1 for active, class 0 for inactive

// known answers, use as guide
| Compound | Answer Label |
| --- | --- |
| NC(=O)c1noc([C@H](CCCC2CCCCC2)CC(=O)NO)n1 | class 1 |
| CCCCCCCN(CC)CCCC(O)c1ccc(NS(C)(=O)=O)cc1 (centres undefined) | class 1 |

# input Please share the test call associated with `N#Cc1c(NC(=O)c2cccc3ccccc23)sc2c1CCCC2` .
# output class 1

# input Please share the test call associated with COc1cccc2c1C(=O)c1c(O)c3c(c(O)c1C2=O)C[C@@](O)(C(=O)CO)C[C@@H]3O[C@H]1C[C@H](N)[C@H](OC2CCCCO2)[C@H](C)O1 (some centres undefined) .
# output class 0

# input Please share the test call associated with `O=C(Nc1ccccc1Br)N[C@@H]1CCN(c2ccc(C(F)(F)F)cn2)C1` .
# output class 0
